Reference for the values: patent US20020111274A1

test system: GLXMAW Soybean, Williams; experiment: Preemergence herbicidal evaluation, GLXMAW; assay type: in vivo, Glycine max, (L.) Merr. cv Williams; set-up: scale not given here; settings: preemergence, rate 0.125 kg/ha
measurementName: GLXMAW herbicidal rating
I only need the number, thanks.

Consider the reported GLXMAW herbicidal rating for these compounds:
- smilesStr: "Cn1c(C(F)(F)F)cc(=O)n(-c2cc3c(cc2F)nnn3-c2ccc(OCC(=O)O)cc2)c1=O"
  GLXMAW herbicidal rating: 0.0
- smilesStr: "COc1ccc(-n2nnc3cc(F)c(-n4c(=O)cc(C(F)(F)F)n(C)c4=O)cc32)cc1"
  GLXMAW herbicidal rating: 9.0
- smilesStr: "CC(C)c1ccc(-n2nnc3cc(F)c(-n4c(=O)cc(C(F)(F)F)n(C)c4=O)cc32)cc1"
  GLXMAW herbicidal rating: 1.0
- smilesStr: "COC(=O)COc1ccc(-n2nnc3cc(F)c(-n4c(=O)cc(C(F)(F)F)n(C)c4=O)cc32)c(C)c1"
  GLXMAW herbicidal rating: 0.0

Please turn your attention to the following entry.
Please look at this compound and report its GLXMAW herbicidal rating: C=CCOc1ccc(C)cc1-n1nnc2cc(F)c(-n3c(=O)cc(C(F)(F)F)n(C)c3=O)cc21
5.0
